Would you kindly list Larp1b expression level for each of these compounds?
Test system: murine dermal fibroblasts
Assay: RNA-Seq of newborn murine dermal fibroblasts
Format: cell-based, mouse
Conditions: 10^−7 M, 24 h
Could you respond with only the numeric value?

Lab book: Larp1b expression level of C=C1C(=CC=C2CCCC3(C)C2CCC3C(C)(O)CC(O)CC(C)C)CC(O)CC1O (stereo not shown) noted as 6.304

Value of measured Larp1b expression level for the entry CC(C)CCC[C@](C)(O)[C@H]1CC[C@H]2[C@@H]3CC=C4C[C@@H](O)CC[C@]4(C)[C@H]3CC[C@@]21C [20(OH)C, 20-hydroxycholesterol, reference compound] : 3.613

Value of Larp1b expression level reported for the compound C=C1CCC(O)CC1=CC=C1CCCC2(C)C1CCC2C(C)(O)CC(O)CC(C)C (stereo not shown) is 3.399

Larp1b expression level reading for C=C1/C(=C\C=C2/CCC[C@]3(C)[C@@H]([C@H](C)CCCC(C)(C)O)CC[C@@H]23)C[C@@H](O)C[C@@H]1O [1,25(OH)2D3, reference compound] : 2.787

====

Molecular target: LBD of LXRβ (Homo sapiens, UniProt P55055)
Construct: purchased Thermo Fisher Scientific
Sequence (P55055 222-460 limits assumed): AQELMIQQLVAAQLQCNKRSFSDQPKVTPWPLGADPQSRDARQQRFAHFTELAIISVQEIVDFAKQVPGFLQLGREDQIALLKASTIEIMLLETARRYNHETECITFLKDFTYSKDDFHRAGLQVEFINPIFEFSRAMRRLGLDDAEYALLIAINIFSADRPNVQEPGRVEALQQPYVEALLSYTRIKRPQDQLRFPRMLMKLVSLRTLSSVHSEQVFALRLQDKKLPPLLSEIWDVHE
Assay: LanthaScreen TR-FRET LXRβ coactivator assay (LXR binding assay)
Type: biochemical
Conditions: agonist; average values; read-out: LXRβ EC50
pEC50: −log10 of the molar value.
Each entry gets F if its pEC50 stays under 6, and T if its pEC50 is 6 or above.

Lookup: Quick check, pEC50 >= 6? C[C@H](CO)CCC[C@@H](C)[C@H]1CC[C@H]2C3=CC=C4C[C@@H](O)CC[C@@]4(C)[C@@H]3CC[C@]12C [(25S)-27(OH)L3]
Found: T

Lookup: Dear colleague, could you confirm whether C=C1CC[C@H](O)C/C1=C/C=C1\CCC[C@]2(C)[C@@H]([C@H](C)CCCC(C)(C)O)CC[C@@H]12 [25(OH)D3, reference compound] has pEC50 at or above 6?
Found: F

Lookup: Test whether the compound CC(C)CCC(O)C(C)(O)C1CCC2C3=CC=C4CC(O)CCC4(C)C3CCC21C (centres unmarked) records pEC50 of 6 or higher.
Found: F

Lookup: Say whether C=C1C(=CC=C2CCCC3(C)C2CCC3C(C)(O)CC(O)CC(C)C)CC(O)CC1O (centres unmarked) shows pEC50 of 6 or more.
Found: F

Lookup: Is the recorded value of pEC50 equal to or greater than 6 for this compound? C[C@@H](CO)CCC[C@@H](C)[C@H]1CC[C@H]2C3=CC=C4C[C@@H](O)CC[C@@]4(C)[C@@H]3CC[C@]12C [(25R)-27(OH)L3]
Found: T

Lookup: Exam item: decide whether the reported pEC50 for `C=C1CC[C@H](O)C/C1=C/C=C1\CCC[C@@]2(C)[C@H]1CC[C@@H]2[C@@](C)(O)CCCC(C)C` is at least 6.
Found: F

Lookup: Please check the record C=C1CCC(O)CC1=CC=C1CCCC2(C)C1CCC2C(C)(O)CC(O)CC(C)C (centres unmarked) and state if its pEC50 is at or above 6.
Found: F

Lookup: Would you say CC(C)CCC(O)[C@@H](C)[C@H]1CC[C@H]2C3=CC=C4C[C@@H](O)CC[C@@]4(C)[C@@H]3CC[C@]12C (some centres unmarked) shows pEC50 at minimum 6?
Found: F

Lookup: # bool: pEC50 of C=C1C(=CC=C2CCCC3(C)C2CCC3C(C)(O)CCCC(C)(C)O)CC(O)CC1O (centres unmarked) >= 6
Found: T

Lookup: Identify whether the reported pEC50 of the following compound is 6 or greater: C=C1/C(=C\C=C2/CCC[C@]3(C)[C@@H]([C@H](C)CCCC(C)(C)O)CC[C@@H]23)C[C@@H](O)C[C@@H]1O [1,25(OH)2D3, reference compound]
Found: F

Lookup: Is pEC50 for `C=C1/C(=C\C=C2/CCC[C@@]3(C)[C@H]2CC[C@@H]3[C@@](C)(O)CCCC(C)C)C[C@@H](O)C[C@@H]1O` at or above 6?
Found: T

Lookup: Assess whether reported pEC50 for `CC(C)CCC[C@](C)(O)[C@H]1CC[C@H]2C3=CC=C4C[C@@H](O)CC[C@@]4(C)[C@@H]3CC[C@@]21C` sits at 6 or higher.
Found: T

Lookup: Evaluate C=C1CCC(O)CC1=CC=C1CCCC2(C)C1CCC2(O)C(C)O (centres unmarked) : pEC50 at minimum 6?
Found: F

Lookup: Form field: pEC50 at least 6? Entry: CC(CCCC(C)(C)O)[C@H]1CC[C@H]2C3=CC=C4C[C@@H](O)CC[C@@]4(C)[C@@H]3CC[C@]12C (some centres unmarked)
Found: F

Lookup: Threshold query (pEC50 >= 6) on `C=C1CC[C@H](O)C/C1=C/C=C1\CCC[C@@]2(C)[C@H]1CC[C@@H]2[C@@](C)(O)CCCC(C)(C)O`
Found: F

Lookup: Decide: pEC50 of `CC(C)CCC[C@@H](C)[C@H]1CC[C@H]2C3=CC=C4C[C@@H](O)CC[C@@]4(C)[C@@H]3CC[C@]12C` >= 6?
Found: T

====

System: murine dermal fibroblasts
Assay: RNA-Seq of newborn murine dermal fibroblasts
Type: cell-based, mouse
Settings: 10^−7 M, 24 h
RESULT_TYPE: Sgca expression level
Enter the number alone.

response.value for CC(C)CCC[C@](C)(O)[C@H]1CC[C@H]2[C@@H]3CC=C4C[C@@H](O)CC[C@]4(C)[C@H]3CC[C@@]21C [20(OH)C, 20-hydroxycholesterol, reference compound] (field: Sgca expression level) = 0.3806

Value of measured Sgca expression level for the entry C=C1C(=CC=C2CCCC3(C)C2CCC3C(C)(O)CC(O)CC(C)C)CC(O)CC1O (stereo not shown) : 0.5689

Recorded result, C=C1CCC(O)CC1=CC=C1CCCC2(C)C1CCC2C(C)(O)CC(O)CC(C)C (stereo not shown) , Sgca expression level: 0.3824

Per the records, this compound ( C=C1/C(=C\C=C2/CCC[C@]3(C)[C@@H]([C@H](C)CCCC(C)(C)O)CC[C@@H]23)C[C@@H](O)C[C@@H]1O [1,25(OH)2D3, reference compound] ) has Sgca expression level equal to 0.3791

====

Give EC50 for every item shown.
Biological target: LBD of LXRα (Homo sapiens)
Construct: after addition of LXRα/β-LBD to the derivatives; purchased Thermo Fisher Scientific
Sequence (Q13133 209-447 limits assumed): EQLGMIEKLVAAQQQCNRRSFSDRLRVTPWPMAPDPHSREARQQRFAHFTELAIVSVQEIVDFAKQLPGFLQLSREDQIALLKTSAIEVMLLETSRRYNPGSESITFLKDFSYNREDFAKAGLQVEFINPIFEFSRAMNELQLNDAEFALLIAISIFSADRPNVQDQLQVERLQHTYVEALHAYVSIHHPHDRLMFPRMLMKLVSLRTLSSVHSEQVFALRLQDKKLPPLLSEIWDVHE
Test: LanthaScreen TR-FRET LXRα coactivator assay (LXR binding assay)
Format: biochemical
Conditions: agonist; average values; read-out: LXRα EC50
Provide the reading as a plain figure in µM.

The molecule listed as C=C1CCC(O)CC1=CC=C1CCCC2(C)C1CCC2C(C)(O)CC(O)CC(C)C (stereo not shown) shows EC50 equal to 1.1

// sample CC(CCCC(C)(C)O)[C@H]1CC[C@H]2C3=CC=C4C[C@@H](O)CC[C@@]4(C)[C@@H]3CC[C@]12C (stereo partly shown) , its EC50 was 0.14

The molecule listed as CC(C)CCC(O)C(C)(O)C1CCC2C3=CC=C4CC(O)CCC4(C)C3CCC21C (stereo not shown) shows EC50 equal to 1.5

So for C[C@H](CO)CCC[C@@H](C)[C@H]1CC[C@H]2C3=CC=C4C[C@@H](O)CC[C@@]4(C)[C@@H]3CC[C@]12C [(25S)-27(OH)L3] , the logged EC50 turned out to be 0.026

// recorded EC50 for C[C@@H](CO)CCC[C@@H](C)[C@H]1CC[C@H]2C3=CC=C4C[C@@H](O)CC[C@@]4(C)[C@@H]3CC[C@]12C [(25R)-27(OH)L3] : 0.82

So for C=C1CC[C@H](O)C/C1=C/C=C1\CCC[C@]2(C)[C@@H]([C@H](C)CCCC(C)(C)O)CC[C@@H]12 [25(OH)D3, reference compound] , the logged EC50 turned out to be 0.011

The molecule identified as `CC(C)CCC[C@](C)(O)[C@H]1CC[C@H]2C3=CC=C4C[C@@H](O)CC[C@@]4(C)[C@@H]3CC[C@@]21C` registered its EC50 at 1.8

Short answer for C=C1CCC(O)CC1=CC=C1CCCC2(C)C1CCC2(O)C(C)O (stereo not shown) : EC50 was 30

Reported EC50 for `C=C1CC[C@H](O)C/C1=C/C=C1\CCC[C@@]2(C)[C@H]1CC[C@@H]2[C@@](C)(O)CCCC(C)(C)O` was 0.35

Kindly note the recorded EC50 for CC(CC[C@H](O)C(C)C)[C@H]1CC[C@H]2C3=CC=C4C[C@@H](O)CCC4(C)[C@@H]3CC[C@]12C (stereo partly shown) , which is 3.6

# EC50 of CC(C)CCC(O)[C@@H](C)[C@H]1CC[C@H]2C3=CC=C4C[C@@H](O)CC[C@@]4(C)[C@@H]3CC[C@]12C (stereo partly shown) = 0.64

Entry `C=C1CC[C@H](O)C/C1=C/C=C1\CCC[C@@]2(C)[C@H]1CC[C@@H]2[C@@](C)(O)CCCC(C)C` , EC50 reported as 0.015

EC50 in this record for `CC(C)CCC[C@@H](C)[C@H]1CC[C@H]2C3=CC=C4C[C@@H](O)CC[C@@]4(C)[C@@H]3CC[C@]12C` : 0.25
